Provenance of the data: patent US20180353501A1

experiment: Pharmacokinetics of intraperitoneal or intravenous injection in CD1 mice (plasma, LC/MS/MS); type: in vivo; conditions: male, CD1, mouse, plasma, iv, 1 mg/kg, IV 1.0 mg/kg, 0.033 h, read-out: Conc. Mean
attributeMeasured: concentration at 0.033 h (ng/mL)

{"mol": "COc1cc2c(Oc3ccc(NC(=O)C4(C(=O)Nc5ccc(F)cc5)CC4)cc3F)ccnc2cc1OCCCOCCCOCCC(=O)N[C@H](C(=O)N1C[C@H](O)C[C@H]1C(=O)NCc1ccc(-c2scnc2C)cc1)C(C)(C)C", "attributeMeasured": "concentration at 0.033 h", "reportedResult": 2350}

====

biological target: p38δ (Homo sapiens, UniProt O15264); construct: endogenous in cells; host or cells: MDA-MB-231 (intact cells for degradation; cleared cell lysate for CETSA); assay: Western blot survey of p38 isoform degradation in MDA-MB-231 cells (incl. proteasome rescue, CHX chase, washout); type: cell-based; settings: MDA-MB-231 cells, western blot
Sequence (O15264 whole entry, canonical isoform): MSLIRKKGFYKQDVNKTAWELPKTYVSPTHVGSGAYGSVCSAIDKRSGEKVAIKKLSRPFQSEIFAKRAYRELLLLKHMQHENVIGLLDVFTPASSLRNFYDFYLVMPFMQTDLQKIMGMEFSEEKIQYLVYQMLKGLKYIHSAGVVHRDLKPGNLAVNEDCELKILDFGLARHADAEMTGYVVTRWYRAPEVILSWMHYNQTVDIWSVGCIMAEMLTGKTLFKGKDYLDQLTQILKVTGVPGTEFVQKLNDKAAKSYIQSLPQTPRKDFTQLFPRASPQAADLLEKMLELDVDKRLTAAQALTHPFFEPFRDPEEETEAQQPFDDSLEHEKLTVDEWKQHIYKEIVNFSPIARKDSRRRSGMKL

{"molecule": "COc1cc2c(Oc3ccc(NC(=O)C4(C(=O)Nc5ccc(F)cc5)CC4)cc3F)ccnc2cc1OCCOCCOCCOc1cc(-c2scnc2C)ccc1CNC(=O)[C@@H]1C[C@@H](O)CN1C(=O)[C@H](C(C)C)N1Cc2ccccc2C1=O [compound 46]", "Dmax": "98.4%"}
{"molecule": "COc1cc2c(Oc3ccc(NC(=O)C4(C(=O)Nc5ccc(F)cc5)CC4)cc3F)ccnc2cc1OCCOCCOCCC(=O)N[C@H](C(=O)N1C[C@H](O)C[C@H]1C(=O)NCc1ccc(-c2scnc2C)cc1)C(C)(C)C [Ex. 49]", "Dmax": "81%"}
{"molecule": "COc1cc2c(Oc3ccc(NC(=O)C4(C(=O)Nc5ccc(F)cc5)CC4)cc3F)ccnc2cc1OCCCCOCCCCOCC(=O)N[C@H](C(=O)N1C[C@H](O)C[C@H]1C(=O)NCc1ccc(-c2scnc2C)cc1)C(C)(C)C [compound 50]", "Dmax": "18.5%"}
{"molecule": "COc1cc2c(Oc3ccc(NC(=O)C4(C(=O)Nc5ccc(F)cc5)CC4)cc3F)ccnc2cc1OCCCCOCCCCOc1cc(-c2scnc2C)ccc1CNC(=O)[C@@H]1C[C@@H](O)CN1C(=O)[C@H](C(C)C)N1Cc2ccccc2C1=O [Ex. 45]", "Dmax": "44%"}
{"molecule": "COc1cc2c(Oc3ccc(NC(=O)C4(C(=O)Nc5ccc(F)cc5)CC4)cc3F)ccnc2cc1OCCCOCCCOCCCOc1cc(-c2scnc2C)ccc1CNC(=O)[C@@H]1C[C@@H](O)CN1C(=O)[C@H](C(C)C)N1Cc2ccccc2C1=O [Ex. 47]", "Dmax": "33%"}
{"molecule": "COc1cc2c(Oc3ccc(NC(=O)C4(C(=O)Nc5ccc(F)cc5)CC4)cc3F)ccnc2cc1OCCCOCCOCCC(=O)N[C@H](C(=O)N1C[C@H](O)C[C@H]1C(=O)NCc1ccc(-c2scnc2C)cc1)C(C)(C)C [Ex. 48]", "Dmax": "91%"}
{"molecule": "COc1cc2c(Oc3ccc(NC(=O)C4(C(=O)Nc5ccc(F)cc5)CC4)cc3F)ccnc2cc1OCCCOCCOCCCOc1cc(-c2scnc2C)ccc1CNC(=O)[C@@H]1C[C@@H](O)CN1C(=O)[C@H](C(C)C)N1Cc2ccccc2C1=O [Ex. 5]", "Dmax": "52%"}
{"molecule": "COc1cc2c(Oc3ccc(NC(=O)C4(C(=O)Nc5ccc(F)cc5)CC4)cc3F)ccnc2cc1OCCCOCCCOCCC(=O)N[C@H](C(=O)N1C[C@H](O)C[C@H]1C(=O)NCc1ccc(-c2scnc2C)cc1)C(C)(C)C [Example 1]", "Dmax": "42%"}
